These entries and their values trace back to patent US9908886B2.

# study-target: MNK1 (Homo sapiens)
# protocol: In vitro MNK kinase assay (Caliper LabChip mobility shift)
# Format: biochemical
# conditions: enzymatic, 1.2 mM ATP; read-out: IC50 Mnk1
IC50 values, listed per item
readout: IC50

> print(dat)
                                    compound  readout  recorded.value
 1  CC(=O)NC1(C)CCN(C(=O)c2ccc(-c3ccc4ncc(-c5ccc(C#N)cc5)n4c3)cc2)CC1 [Example 99]     IC50        < 100 nM
 2  CN1CCN(C(=O)c2ccc(-c3ccc4ncc(-c5ccc(C#N)cc5)n4c3)cc2N)CC1 [Example 146]     IC50        < 100 nM
 3  N#Cc1ccc(-c2cnc3ccc(-c4ccc(C(=O)N5CCCNCC5)cc4)cn23)cc1 [Example 107]     IC50        < 100 nM
 4  N#Cc1ccc(-c2cnc3ccc(-c4ccc(C(=O)N5CCC(N6CCOCC6)CC5)cc4)cn23)cc1 [Example 134]     IC50        < 100 nM
 5  N#Cc1ccc(-c2cnc3cnc(-c4ccc(C(=O)N5CCOCC5)cc4)cn23)cc1 [Example 7]     IC50       < 1000 nM
 6  CC(=O)N1CCCCC12CCN(C(=O)c1ccc(-c3ccc4ncc(-c5ccc(C#N)cc5)n4c3)cc1)CC2 [Example 118]     IC50        < 100 nM
 7  CN1CCCCC12CCN(C(=O)c1ccc(-c3ccc4ncc(-c5ccc(C#N)cc5)n4c3)cc1)CC2 [Example 119]     IC50        < 100 nM
 8  CN1CCN(C2CCN(C(=O)c3ccc(-c4ccc5ncc(-c6ccc7c(c6)CC(=O)N7)n5n4)cc3)CC2)CC1 [Example 89]     IC50        < 100 nM
 9  CN1CCN(C(=O)c2ccc(-c3cn4c(-c5ccc(C#N)cc5)cnc4cn3)c(O)c2)CC1 [Example 38]     IC50       < 1000 nM
10  CN1CCN(C(=O)c2ccc(-c3ccc4ncc(-c5ccc(C#N)cc5)n4c3)cc2)CC1=O [Example 130]     IC50        < 100 nM
